- Tested on: LCK
- measurement-conditions: Compound Concentration (nM):1000;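 also: KINOMEscan scanMAX binding as percent activity remaining versus control; lower means stronger binding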
Reported Percent Control by item:
quantity-kind: Percent Control (%)

- CCS(=O)(=O)c1ccc(OC)c(Nc2ncc(-c3cccc(F)c3)o2)c1 [GW621970X]: 25
- COC(=O)Nc1nc2ccc(Oc3ccc(NC(=O)Nc4cc(C(F)(F)F)ccc4F)cc3)cc2s1.Cl [GW693917A]: 2.2
- COc1cc(/C=N/Nc2ncnc3[nH]ncc23)ccc1O [GW578748X]: 42
- COc1cc(C)c(N(C)C(=O)CN(C)C)cc1Nc1nc(Nc2cccc(F)c2C(N)=O)c2cc[nH]c2n1: 100
- C[C@@H](Oc1cc(-n2cnc3ccc(OC4CCN(C)CC4)cc32)sc1C(N)=O)c1ccccc1Cl [GSK579289A]: 82
- CN(C)CCNC(=O)Nc1ccc(N(C)c2ccnc(Nc3ccc(CS(C)(=O)=O)cc3)n2)cc1.Cl [GW830900A]: 93
- COc1ccccc1-c1cc(/C=C2\C(=O)Nc3ncc(Br)cc32)cc(Br)c1O [GW442130X]: 100
- COc1cccc(-c2c[nH]c3c(N/N=C/c4ccncc4)ncnc23)c1 [GW814408X]: 7.5

* * *

Percent Control: recorded values
- Tested on: PKAC-alpha
- Construct: gene PRKACA
- measurement-conditions: Compound Concentration (nM):1000
quantity-kind: Percent Control (%)

* COc1ccc2[nH]c3c4[nH]c5ccc(OC)cc5c4c4c(c3c2c1)C(=O)NC4=O [GW296115X] | 87
* COc1cc2ncnc(Nc3ccc4c(cnn4Cc4ccccc4)c3)c2cc1OC.Cl [GW282449A] | 100
* NS(=O)(=O)c1ccc(N/N=C2\C(=O)Nc3ccc(-c4cnco4)cc32)cc1 | 88
* COc1cc2ncn(-c3cc(O[C@H](C)c4ccccc4Cl)c(C(N)=O)s3)c2cc1OC [GSK237701A] | 100
* Cl.O=C(Nc1ccc(Oc2ccc3[nH]c(NC(=O)c4ccccc4)nc3c2)cc1)Nc1cc(C(F)(F)F)ccc1F [GW709042A] | 100
* CCS(=O)(=O)c1ccc(OC)c(Nc2ncc(-c3cccc(F)c3)o2)c1 [GW621970X] | 100
* COc1cc(N2CCN(C(C)C)CC2)ccc1Nc1nc(Nc2ccc(F)cc2C(=O)NC[C@@H](O)CO)c2cc[nH]c2n1 [GSK1392956A] | 100
* COc1ccc2c(-c3ccnc(Nc4cccc(OC(F)(F)F)c4)n3)cnn2n1 [GW810372X] | 100
* C/C(Nc1ccc(S(N)(=O)=O)cc1)=C1/C(=O)Nc2ccccc21 [GW335962X] | 100
* NS(=O)(=O)c1ccc(N/N=C2\C(=O)Nc3ccc(Cl)cc32)cc1 [GW280670X] | 100
* COc1cc(C=NNc2ncnc3c2cnn3-c2ccccc2)ccc1O [GW513184X] | 100
* CC1=C(C(=O)Nc2ccc3[nH]ncc3c2)C(c2ccc3ccccc3c2)CC(=O)N1 (centres unmarked) [GSK270822A] | 64
* CCn1c(-c2nonc2N)nc2c(C#CC(C)(C)O)nc(OCCNC)cc21.Cl | 21
* COc1cccc(-c2c[nH]c3c(N/N=C/c4ccncc4)ncnc23)c1 [GW814408X] | 100
* COc1cccc(-n2ncc3c(N/N=C/c4ccncc4)ncnc32)c1 [GW784752X] | 100
* NS(=O)(=O)c1ccc(Nc2ncc(-c3ccccc3)o2)cc1 [GW572399X] | 100
* CC1=C(C(=O)Nc2ccc3[nH]ncc3c2)C(c2ccc(Cl)c(Cl)c2)CC(=O)N1 (centres unmarked) [GSK299115A] | 81

Values compiled from paper PMC7826789.
